test system: neuronally differentiated SK-N-SH cells; experiment: Protection from MPP+ induced toxicity in neuronally differentiated SK-N-SH cells; format: cell-based; details: 10 μM MPP+, 72 h, read-out: EC50 (IC50) for protection from MPP+ induced cell death

compound: CN(C)c1cnn(-c2ccccc2)c(=O)c1N [PIP-1]
EC50 / µM: 1.64

* * *

system: NAD^+ depletion in HL-60 cell lysate; test: Whole cell assay screen: NAD+ depletion in H2O2-activated HL-60 cell lysate; format: cell-based
property-name: Inhibition of NAD+ depletion in the whole cell assay

compound: CN(C)c1ccn(-c2ccccc2)c(=O)c1N
measurement: inhibit NAD^+ depletion
--
compound: CN(C)c1cnn(-c2ccccc2)c(=O)c1N
measurement: inhibit NAD^+ depletion

* * *

biological target: PARG (Bos taurus, UniProt O02776); test: Inhibition of PARG activity in vitro (quantitation of free ADP-ribose with benzamidine, fluorescence); assay type: biochemical; set-up: purchased Biomol
Sequence (O02776 whole entry): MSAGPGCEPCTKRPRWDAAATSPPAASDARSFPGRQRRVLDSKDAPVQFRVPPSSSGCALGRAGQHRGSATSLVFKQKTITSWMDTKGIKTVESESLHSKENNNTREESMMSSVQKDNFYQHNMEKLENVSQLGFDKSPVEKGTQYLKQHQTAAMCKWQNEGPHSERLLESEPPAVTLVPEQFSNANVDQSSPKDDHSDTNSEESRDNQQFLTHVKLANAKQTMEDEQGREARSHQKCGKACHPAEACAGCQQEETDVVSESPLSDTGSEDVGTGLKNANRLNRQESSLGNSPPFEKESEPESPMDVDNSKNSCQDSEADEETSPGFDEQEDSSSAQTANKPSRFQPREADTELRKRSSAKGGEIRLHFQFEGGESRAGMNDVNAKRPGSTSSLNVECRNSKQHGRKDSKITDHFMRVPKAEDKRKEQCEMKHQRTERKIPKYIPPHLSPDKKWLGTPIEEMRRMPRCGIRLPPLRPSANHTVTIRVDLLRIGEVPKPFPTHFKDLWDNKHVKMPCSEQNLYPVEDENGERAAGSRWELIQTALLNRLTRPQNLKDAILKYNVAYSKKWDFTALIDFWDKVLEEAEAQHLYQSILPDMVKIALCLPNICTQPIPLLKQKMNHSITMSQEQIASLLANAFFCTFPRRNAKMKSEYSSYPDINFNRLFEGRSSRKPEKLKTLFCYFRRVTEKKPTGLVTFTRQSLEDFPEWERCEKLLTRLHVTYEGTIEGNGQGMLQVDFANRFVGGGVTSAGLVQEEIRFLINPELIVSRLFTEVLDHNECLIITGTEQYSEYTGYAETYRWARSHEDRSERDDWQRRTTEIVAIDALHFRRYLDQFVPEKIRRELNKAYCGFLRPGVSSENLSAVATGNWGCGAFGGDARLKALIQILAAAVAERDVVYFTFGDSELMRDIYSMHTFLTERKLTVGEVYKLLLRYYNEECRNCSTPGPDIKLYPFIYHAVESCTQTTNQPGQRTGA
pIC50: −log10 of the molar value.
property-name: pIC50

compound: CN(C)c1cnn(-c2ccccc2)c(=O)c1N
property-name: pIC50
measurement: 6.31

* * *

system: PARG; assay: Table 2: small molecules tested for PARG inhibition activity (relative to PIP-1); format: biochemical

molecule: CN(C)c1cnn(C)c(=O)c1N
test-system: PARG
Activity: low
//
molecule: CCCN(CCC)c1cnn(-c2ccccc2)c(=O)c1NC(C)=O
test-system: PARG
Activity: low
//
molecule: CCCCCCNc1c(Cl)cnn(-c2ccccc2)c1=O
test-system: PARG
Activity: low
//
molecule: O=c1c(Cl)c(O)cnn1-c1ccccc1 [entry 3, reference compound]
test-system: PARG
Activity: low
//
molecule: CCCN(CCC)c1cnn(-c2ccccc2)c(=O)c1N
test-system: PARG
Activity: good
//
molecule: CCCCN(CCCC)c1cnn(-c2ccccc2)c(=O)c1N
test-system: PARG
Activity: good
//
molecule: CN(C)c1cnn(-c2ccccc2)c(=O)c1N
test-system: PARG
Activity: good
//
molecule: CC(=O)Nc1c(N2CCCCC2)cnn(-c2ccccc2)c1=O
test-system: PARG
Activity: good
//
molecule: Nc1c(Cl)cnn(-c2ccccc2)c1=O
test-system: PARG
Activity: low

* * *

tested on: PARG; test: Table 2: small molecules tested for PARG inhibition activity (relative to PIP-1); assay type: biochemical

compound: Nc1c(N2CCCCC2)cnn(-c2ccccc2)c1=O
Activity: good
--
compound: Nc1c(N2CCOCC2)cnn(-c2ccccc2)c1=O
Activity: good
--
compound: CC(=O)Nc1c(N2CCCC2)cnn(-c2ccccc2)c1=O
Activity: moderate
--
compound: CC(=O)Nc1c(Cl)cnn(-c2ccccc2)c1=O
Activity: low
--
compound: CC(=O)Nc1c(N2CCOCC2)cnn(-c2ccccc2)c1=O
Activity: moderate
--
compound: CCCCN(CC)c1cnn(-c2ccccc2)c(=O)c1NC(C)=O
Activity: low
--
compound: CC(=O)N(C(C)=O)c1c(Cl)cnn(-c2ccccc2)c1=O
Activity: low
--
compound: CCN(CC)c1cnn(-c2ccccc2)c(=O)c1NC(C)=O
Activity: moderate
--
compound: CCN(CC)c1cnn(-c2ccccc2)c(=O)c1N
Activity: good
--
compound: CC(=O)Nc1c(N(C)C)cnn(-c2ccccc2)c1=O
Activity: moderate
--
compound: CCCCN(CCCC)c1cnn(-c2ccccc2)c(=O)c1NC(C)=O
Activity: low
--
compound: Nc1c(N2CCCC2)cnn(-c2ccccc2)c1=O
Activity: moderate
